Source of measurements: patent US10597388B2

Tested on: foxtail, giant (giant foxtail, Setaria faberii)
Protocol Details: Test E greenhouse herbicide test, pre- and postemergence
Format: in vivo
Assay Conditions: Preemergence, 250 g ai/ha; visual, scale 0 no effect to 100 complete control
We label by threshold. Values of Plant response rating, Foxtail, Giant strictly beneath 90 are 1. Values of 90 and up are 0.

Examples with answers:
| Structure String | Category Label |
| --- | --- |
| Cc1cc(C)c2sc(C)c(-c3c(O)c(C)nn(C)c3=O)c2c1 | 0 |
| Cc1cc2ccccc2c(-c2c(O)c(C)nn(C)c2=O)c1C | 1 |
| CCc1sc2ccc(C)cc2c1-c1c(O)c(C)nn(C)c1=O | 1 |

*Q* Is 90 strictly greater than the molecule's reported Plant response rating, Foxtail, Giant? molecule: CCc1sc2c(C)cc(C)cc2c1-c1c(O)c(C)nn(C)c1=O
*A* 0

###

System: soybean (Glycine max)
Protocol Details: Test C greenhouse herbicide test, pre- and postemergence
Type: in vivo
Assay Conditions: Postemergence, 31 g ai/ha; scale 0 to 100 (0 no effect, 100 complete control)
Assay Readout: Plant response rating, Soybean
Please give only the number in your answer, with no unit.

The cases that follow already have their Plant response rating, Soybean on record.
| Structure String | Tgt | Plant response rating, Soybean |
| --- | --- | --- |
| Cc1nn(C)c(=O)c(-c2c(C)sc3ccc(C(F)(F)F)cc23)c1O | soybean (Glycine max) | 0 |
| CCCC(=O)Oc1c(C)nn(C)c(=O)c1-c1c(CC)sc2ccc(C)cc12 | soybean (Glycine max) | 0 |
| COC(=O)Oc1c(OC)nn(C)c(=O)c1-c1c(C)ccc2ccccc12 | soybean (Glycine max) | 5 |

Next item in the queue.
*Q* Hello, I am looking for reported Plant response rating, Soybean with soybean (Glycine max) for COC(=O)Oc1c(C)nn(C)c(=O)c1-c1ccc(F)c2ccccc12 . Could you help?
*A* 10

###

Tested on: ragweed (common ragweed, Ambrosia elatior)
Protocol Details: Test A greenhouse herbicide test, pre- and postemergence
Format: in vivo
Assay Conditions: Postemergence, 125 g ai/ha; 0 to 100 scale where 0 is no effect and 100 is complete control
Label Fulfilled when Plant response rating, Ragweed is at or above 70; otherwise label Not fulfilled.

*Q* Decide: is the reported value of Plant response rating, Ragweed for CC(=O)Oc1c(C)nn(C)c(=O)c1-c1c(C)sc2ccc(C(F)(F)F)cc12 [Compound 132] equal to or greater than 70?
*A* Fulfilled

###

System: buckwheat, wild (wild buckwheat, Polygonum convolvulus)
Protocol Details: Test D controlled growth environment herbicide test, pre- and postemergence
Assay type: in vivo
Assay Conditions: Postemergence, 31 g ai/ha; scale 0 to 100 (0 no effect, 100 complete control)
Reported Buckwheat, Wild plant response rating is given for each of the following compounds.
# respond with the number and nothing more

*Q* Given the entry Cc1ccc2ccccc2c1-c1c(OC(=O)OC(C)C)c(C)nn(C)c1=O [Compound 72] , what Buckwheat, Wild plant response rating was observed with buckwheat, wild (wild buckwheat, Polygonum convolvulus)?
*A* 95

*Q* Now the compound Cc1nn(C)c(=O)c(-c2cccc3ccc(Br)cc23)c1O [Compound 126]
*A* 70

*Q* What do you get for CC(=O)Oc1c(C)nn(C)c(=O)c1-c1c(C)sc2ccc(Cl)cc12 [Compound 108] ?
*A* 90

*Q* Try Cc1ccc2sc(C)c(-c3c(OC(=O)OC(C)C)c(C)nn(C)c3=O)c2c1 [Compound 66] next.
*A* 95

*Q* Also need COC(=O)Oc1c(C)nn(C)c(=O)c1-c1c(C)sc2ccc(C)cc12 [Compound 80] , thanks.
*A* 100

*Q* Try this compound next: Cc1cc(C)c2ccccc2c1-c1c(O)c(C)nn(C)c1=O [Compound 21]
*A* 100

*Q* // repeat for Cc1ccc2sc(Br)c(-c3c(O)c(C)nn(C)c3=O)c2c1 [Compound 79] and report
*A* 70
